Molecular target: DRB1*1501 (Homo sapiens, UniProt P01903+P01911)
Assay: HLA class II peptide-binding assay (competitive ELISA)
Conditions: immunopurified HLA, reference peptide IC50 775 nM, ratio ≤20 high affinity, 20–200 moderate affinity
experimental-endpoint: relative binding ratio (IC50 of the test peptide divided by IC50 of the reference peptide)
Output: the number by itself.

Briefly, relative binding ratio (IC50 of the test peptide divided by IC50 of the reference peptide) measured for GKWYLKAMTADQEVPE [pC1, Can f 1 peptide p15–30] : 8

Briefly, relative binding ratio (IC50 of the test peptide divided by IC50 of the reference peptide) measured for HYIFYCEGELHGKPVR [pTL6, Tear lipocalin peptide p96–111] : 5

Briefly, relative binding ratio (IC50 of the test peptide divided by IC50 of the reference peptide) measured for LEAKITMLTNGQCQNIT [pC3, Can f 1 peptide p48–64] : 2

====

Tested on: DRB3
Assay: HLA class II peptide-binding assay (competitive ELISA)
Parameters: species or system human
Conditions: DRB3; competitive ELISA, immunopurified HLA; reference peptide IC50 60 nM; ratio ≤20 high affinity, 20–200 moderate affinity
experimental-endpoint: relative binding ratio (IC50 of the test peptide divided by IC50 of the reference peptide)

Briefly, relative binding ratio (IC50 of the test peptide divided by IC50 of the reference peptide) measured for HYILYCEGELHGRQIR [pC6, Can f 1 peptide p95–110] : > 167

Briefly, relative binding ratio (IC50 of the test peptide divided by IC50 of the reference peptide) measured for MNLESVTPMTLTTLEGGNL [pTL2, Tear lipocalin peptide p31–49] : > 167

Briefly, relative binding ratio (IC50 of the test peptide divided by IC50 of the reference peptide) measured for GTWYLKAMTVDREFPE [pTL1, Tear lipocalin peptide p15–30] : 84

Briefly, relative binding ratio (IC50 of the test peptide divided by IC50 of the reference peptide) measured for ALEDFEKAAGARGLST [pTL8, Tear lipocalin peptide p126–141] : > 167

Briefly, relative binding ratio (IC50 of the test peptide divided by IC50 of the reference peptide) measured for PGKYTADGGKHVAYII [pTL4, Tear lipocalin peptide p74–89] : 2

Briefly, relative binding ratio (IC50 of the test peptide divided by IC50 of the reference peptide) measured for ALEDFREFSRAKGLNQ [pC8, Can f 1 peptide p125–140] : > 167

Briefly, relative binding ratio (IC50 of the test peptide divided by IC50 of the reference peptide) measured for GKWYLKAMTADQEVPE [pC1, Can f 1 peptide p15–30] : > 167

Briefly, relative binding ratio (IC50 of the test peptide divided by IC50 of the reference peptide) measured for LEAKITMLTNGQCQNIT [pC3, Can f 1 peptide p48–64] : > 167

Briefly, relative binding ratio (IC50 of the test peptide divided by IC50 of the reference peptide) measured for KPVRGVKLVGRDPKNNL [pTL7, Tear lipocalin peptide p108–124] : > 167

Briefly, relative binding ratio (IC50 of the test peptide divided by IC50 of the reference peptide) measured for EILELAQSETCSPGGQ [pC9, Can f 1 peptide p141–156] : > 167

Briefly, relative binding ratio (IC50 of the test peptide divided by IC50 of the reference peptide) measured for GQRVVFIQPSPVRDHY [pC5, Can f 1 peptide p81–96] : > 167

Briefly, relative binding ratio (IC50 of the test peptide divided by IC50 of the reference peptide) measured for GKHVAYIIRSHVKDHY [pTL5, Tear lipocalin peptide p82–97] : > 167

Briefly, relative binding ratio (IC50 of the test peptide divided by IC50 of the reference peptide) measured for RQIRMAKLLGRDPEQSQ [pC7, Can f 1 peptide p107–123] : > 167
